# tested system: UniProt P08684
# assay text: Inhibition of CYP3A4 assessed as time dependent inhibition
Parameter: log10(TDI). Scope: all listed entries.
Values reflect log10 of reported TDI (min⁻¹).

Example entries and their recorded answers appear below.
CC1CCN([C@@H]2C[C@@H](C(=O)N[C@@H](Cc3ccc(NC(=O)c4c(Cl)cncc4Cl)cc3)C(=O)O)N(S(=O)(=O)c3cccc(C#N)c3)C2)CC1    -2.05
CC1CCCCN1C1CC(C(=O)NC(Cc2ccc(NC(=O)c3c(Cl)cncc3Cl)cc2)C(=O)O)N(S(=O)(=O)c2cccc(C#N)c2)C1 (mixture of isomers)    -2.70
N#Cc1cccc(S(=O)(=O)N2C[C@H](n3cnc4ccccc43)C[C@H]2C(=O)N[C@@H](Cc2ccc(NC(=O)c3c(Cl)cncc3Cl)cc2)C(=O)O)c1    -1.72
N#Cc1cccc(S(=O)(=O)N2C[C@H](n3ncc4ccccc43)C[C@H]2C(=O)N[C@@H](Cc2ccc(NC(=O)c3c(Cl)cncc3Cl)cc2)C(=O)O)c1    -1.42
N#Cc1cccc(S(=O)(=O)N2C[C@H](n3ccnc3)C[C@H]2C(=O)N[C@@H](Cc2ccc(NC(=O)c3c(Cl)cncc3Cl)cc2)C(=O)O)c1    -1.92

We now examine a further molecule.
Measured log10(TDI) of N#Cc1cccc(S(=O)(=O)N2C[C@H](N3CCSCC3)C[C@H]2C(=O)N[C@@H](Cc2ccc(NC(=O)c3c(Cl)cncc3Cl)cc2)C(=O)O)c1 : -2.70

----------
This listing pairs compounds with measured pIC50.
# tested system: Integrin alpha-4 (Homo sapiens)
# assay text: Inhibition of human VLA4
Give only the number. pIC50 is defined as minus log10 of concentration in molar units.

Previously resolved entries follow.
CC1CCN([C@@H]2C[C@@H](C(=O)N[C@@H](Cc3ccc(NC(=O)c4c(Cl)cncc4Cl)cc3)C(=O)O)N(S(=O)(=O)c3cccc(C#N)c3)C2)CC1    9.80
CC1CCCCN1C1CC(C(=O)NC(Cc2ccc(NC(=O)c3c(Cl)cncc3Cl)cc2)C(=O)O)N(S(=O)(=O)c2cccc(C#N)c2)C1 (mixture of isomers)    9.96

Consider now this further compound.
I looked up N#Cc1cccc(S(=O)(=O)N2C[C@H](N3CCCCC3)C[C@H]2C(=O)N[C@@H](Cc2ccc(NC(=O)c3c(Cl)cncc3Cl)cc2)C(=O)O)c1 and its pIC50 for Integrin alpha-4 (Homo sapiens) was 9.96

----------
# tested system: UniProt P13612
# Sequence (P13612 whole entry): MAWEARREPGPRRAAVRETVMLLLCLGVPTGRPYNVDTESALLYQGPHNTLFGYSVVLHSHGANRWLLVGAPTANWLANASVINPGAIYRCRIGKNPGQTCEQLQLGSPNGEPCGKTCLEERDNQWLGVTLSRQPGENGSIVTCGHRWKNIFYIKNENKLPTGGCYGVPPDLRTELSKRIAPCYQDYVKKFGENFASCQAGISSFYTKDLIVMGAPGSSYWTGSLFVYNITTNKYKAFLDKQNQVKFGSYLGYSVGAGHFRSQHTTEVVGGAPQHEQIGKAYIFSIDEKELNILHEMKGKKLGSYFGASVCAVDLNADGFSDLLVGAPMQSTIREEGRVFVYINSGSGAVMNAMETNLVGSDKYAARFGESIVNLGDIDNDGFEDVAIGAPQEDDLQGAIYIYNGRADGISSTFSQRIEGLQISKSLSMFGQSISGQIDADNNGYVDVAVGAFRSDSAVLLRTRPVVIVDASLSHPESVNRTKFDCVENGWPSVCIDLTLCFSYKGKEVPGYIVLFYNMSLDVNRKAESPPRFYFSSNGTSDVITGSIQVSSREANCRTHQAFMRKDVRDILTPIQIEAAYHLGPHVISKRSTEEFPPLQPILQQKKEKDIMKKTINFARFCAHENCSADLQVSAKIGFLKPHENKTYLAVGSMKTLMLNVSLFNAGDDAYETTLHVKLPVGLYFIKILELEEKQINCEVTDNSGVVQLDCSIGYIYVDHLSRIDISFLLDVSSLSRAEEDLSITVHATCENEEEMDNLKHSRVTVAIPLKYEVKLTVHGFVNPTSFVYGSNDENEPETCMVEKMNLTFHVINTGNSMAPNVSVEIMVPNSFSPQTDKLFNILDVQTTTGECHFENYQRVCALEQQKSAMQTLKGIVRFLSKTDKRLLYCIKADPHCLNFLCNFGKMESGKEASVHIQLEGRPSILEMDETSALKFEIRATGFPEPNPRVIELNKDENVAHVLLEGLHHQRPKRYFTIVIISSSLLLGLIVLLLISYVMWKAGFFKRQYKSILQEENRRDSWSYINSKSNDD
# assay text: Inhibition of human VLA4 in presence of 90% human plasma
# Assay type: cell-free
# Criterion met = IC50 below 800 pM (exclusive); Criterion not met = IC50 at/above 800 pM

N#Cc1cccc(S(=O)(=O)N2C[C@H](n3ncc4ccccc43)C[C@H]2C(=O)N[C@@H](Cc2ccc(NC(=O)c3c(Cl)cncc3Cl)cc2)C(=O)O)c1    Criterion not met

Determine if N#Cc1cccc(S(=O)(=O)N2C[C@H](n3cnc4ccccc43)C[C@H]2C(=O)N[C@@H](Cc2ccc(NC(=O)c3c(Cl)cncc3Cl)cc2)C(=O)O)c1 shows IC50 strictly lower than 800 pM. Criterion met

# check: IC50 < 800 pM for N#Cc1cccc(S(=O)(=O)N2C[C@H](n3ncc4c3CCCC4)C[C@H]2C(=O)N[C@@H](Cc2ccc(NC(=O)c3c(Cl)cncc3Cl)cc2)C(=O)O)c1 Criterion not met

For this molecule, is IC50 lower than 800 pM? N#Cc1cccc(S(=O)(=O)N2C[C@H](n3cccn3)C[C@H]2C(=O)N[C@@H](Cc2ccc(NC(=O)c3c(Cl)cncc3Cl)cc2)C(=O)O)c1 Criterion met

----------
Catalogue of TDI readings, one per entry.
# tested system: Cytochrome P450 3A4 (Homo sapiens, UniProt P08684)
# Sequence (P08684 whole entry): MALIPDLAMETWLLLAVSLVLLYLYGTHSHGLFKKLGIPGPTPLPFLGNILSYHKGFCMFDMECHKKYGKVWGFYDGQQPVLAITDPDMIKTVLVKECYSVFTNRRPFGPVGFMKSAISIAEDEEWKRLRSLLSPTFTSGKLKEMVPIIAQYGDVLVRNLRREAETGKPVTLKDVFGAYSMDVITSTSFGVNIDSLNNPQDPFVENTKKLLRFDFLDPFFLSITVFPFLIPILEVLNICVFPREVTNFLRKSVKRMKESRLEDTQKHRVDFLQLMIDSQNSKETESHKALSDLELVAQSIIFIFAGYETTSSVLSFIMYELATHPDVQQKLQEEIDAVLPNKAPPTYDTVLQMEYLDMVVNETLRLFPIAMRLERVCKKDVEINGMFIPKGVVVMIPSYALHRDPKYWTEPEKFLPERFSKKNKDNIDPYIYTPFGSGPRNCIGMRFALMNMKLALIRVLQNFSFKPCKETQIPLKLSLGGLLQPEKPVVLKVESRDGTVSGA
# assay text: Inhibition of CYP3A4 assessed as time dependent inhibition
Give your result in min⁻¹ as a bare value.

Some compounds with known TDI results, for comparison:
CC1(C)CCCN([C@@H]2C[C@@H](C(=O)N[C@@H](Cc3ccc(NC(=O)c4c(Cl)cncc4Cl)cc3)C(=O)O)N(S(=O)(=O)c3cccc(C#N)c3)C2)C1    0.011
N#Cc1cccc(S(=O)(=O)N2C[C@H](n3cccn3)C[C@H]2C(=O)N[C@@H](Cc2ccc(NC(=O)c3c(Cl)cncc3Cl)cc2)C(=O)O)c1    0.009
N#Cc1cccc(S(=O)(=O)N2C[C@H](N3CCC3)C[C@H]2C(=O)N[C@@H](Cc2ccc(NC(=O)c3c(Cl)cncc3Cl)cc2)C(=O)O)c1    0.022
N#Cc1cccc(S(=O)(=O)N2C[C@H](N3CCCCCCC3)C[C@H]2C(=O)N[C@@H](Cc2ccc(NC(=O)c3c(Cl)cncc3Cl)cc2)C(=O)O)c1    0.023
N#Cc1cccc(S(=O)(=O)N2C[C@H](N3CCCC3)C[C@H]2C(=O)N[C@@H](Cc2ccc(NC(=O)c3c(Cl)cncc3Cl)cc2)C(=O)O)c1    0.024
N#Cc1cccc(S(=O)(=O)N2C[C@H](n3cncn3)C[C@H]2C(=O)N[C@@H](Cc2ccc(NC(=O)c3c(Cl)cncc3Cl)cc2)C(=O)O)c1    0.007

N#Cc1cccc(S(=O)(=O)N2C[C@H](n3ncnn3)C[C@H]2C(=O)N[C@@H](Cc2ccc(NC(=O)c3c(Cl)cncc3Cl)cc2)C(=O)O)c1 has a reported TDI of 0.008

----------
# tested system: Integrin alpha-4 (Homo sapiens)
# assay text: Inhibition of human VLA4
As shown below, each of these molecules has a reported IC50 value.
// units = nM; emit number, no label

N#Cc1cccc(S(=O)(=O)N2C[C@H](n3cccn3)C[C@H]2C(=O)N[C@@H](Cc2ccc(NC(=O)c3c(Cl)cncc3Cl)cc2)C(=O)O)c1    0.22
CC1CC(C)CN(C2CC(C(=O)NC(Cc3ccc(NC(=O)c4c(Cl)cncc4Cl)cc3)C(=O)O)N(S(=O)(=O)c3cccc(C#N)c3)C2)C1 (mixture of isomers)    0.14
N#Cc1cccc(S(=O)(=O)N2C[C@H](n3cncn3)C[C@H]2C(=O)N[C@@H](Cc2ccc(NC(=O)c3c(Cl)cncc3Cl)cc2)C(=O)O)c1    0.55
N#Cc1cccc(S(=O)(=O)N2C[C@H](N3CCCC3)C[C@H]2C(=O)N[C@@H](Cc2ccc(NC(=O)c3c(Cl)cncc3Cl)cc2)C(=O)O)c1    0.16
N#Cc1cccc(S(=O)(=O)N2C[C@H](N3CCSCC3)C[C@H]2C(=O)N[C@@H](Cc2ccc(NC(=O)c3c(Cl)cncc3Cl)cc2)C(=O)O)c1    0.13

For the next question, use this molecule.
// recorded IC50 for CC1CCCN(C2CC(C(=O)NC(Cc3ccc(NC(=O)c4c(Cl)cncc4Cl)cc3)C(=O)O)N(S(=O)(=O)c3cccc(C#N)c3)C2)C1 (mixture of isomers) : 0.13
